Molecular target: Estrogen receptor (Rattus norvegicus, UniProt P06211)
Sequence (P06211 whole entry): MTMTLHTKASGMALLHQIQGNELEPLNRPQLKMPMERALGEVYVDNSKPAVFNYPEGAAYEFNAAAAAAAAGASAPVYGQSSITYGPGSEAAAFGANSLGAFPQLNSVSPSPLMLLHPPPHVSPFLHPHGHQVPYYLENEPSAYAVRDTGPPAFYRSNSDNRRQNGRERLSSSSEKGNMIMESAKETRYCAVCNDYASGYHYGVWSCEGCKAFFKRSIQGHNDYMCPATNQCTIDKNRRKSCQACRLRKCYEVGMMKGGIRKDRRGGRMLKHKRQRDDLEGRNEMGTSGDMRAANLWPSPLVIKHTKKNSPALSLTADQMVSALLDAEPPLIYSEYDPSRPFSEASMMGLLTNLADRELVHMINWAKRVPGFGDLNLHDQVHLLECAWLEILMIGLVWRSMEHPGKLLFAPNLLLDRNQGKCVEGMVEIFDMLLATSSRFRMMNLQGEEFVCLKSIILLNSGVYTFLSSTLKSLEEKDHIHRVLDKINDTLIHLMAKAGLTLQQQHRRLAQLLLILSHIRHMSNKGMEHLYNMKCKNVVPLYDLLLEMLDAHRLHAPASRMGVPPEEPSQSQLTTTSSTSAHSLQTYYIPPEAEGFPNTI
measure: pKd
The scale used: pKd is minus the common logarithm of the concentration in molar units.

Request: # lookup: pKd of C[C@]12CC[C@@H]3c4ccc(OC(=O)Cc5ccc(N(CCCl)CCCl)cc5)cc4CC[C@H]3[C@@H]1CC[C@@H]2OC(=O)Cc1ccc(N(CCCl)CCCl)cc1
Response: 5.52
